Values from ChEMBL document CHEMBL2176968

half-life: recorded values
protocol_text: Half life in BALB/c mouse at 20 mg/kg, po
Format: ADME, organism-based
Set-up: dose 20 mg/kg, route oral
run_parameters: in vivo
The answer consists of two parts: a number and, after it, its unit.

Value lookup for half-life; key = CC(C)/N=c1\cc2n(-c3ccc(Cl)cc3)c3ccccc3nc-2cc1Nc1ccc(Cl)cc1 [CLOFAZIMINE]
29.7 h

Next compound: COc1ncccc1Nc1cc2nc3ccccc3n(-c3ccc(OC(F)(F)F)cc3)c-2c/c1=N\C1CCC(OC)CC1 (configuration not stated)
41.2 h

Next compound: COC1CCC(/N=c2\cc3n(-c4ccc(Cl)cc4)c4ccccc4nc-3cc2Nc2ccc(C)nc2)CC1 (configuration not stated)
16.1 h

Next compound: COc1ncccc1Nc1cc2nc3ccccc3n(-c3ccc(Cl)cc3)c-2c/c1=N\C1CCC(OC)CC1 (configuration not stated)
7 h

Next compound: COc1ncccc1Nc1cc2nc3ccccc3n(-c3ccc(F)cc3)c-2c/c1=N\C1CCC(OC)CC1 (configuration not stated)
7.9 h

Next compound: `COc1ncccc1Nc1cc2nc3ccccc3n(-c3ccc(F)cc3)c-2c/c1=N\C(C)C`
17.5 h

Next compound: `COc1ncccc1Nc1cc2nc3ccccc3n(-c3ccc(Cl)cc3)c-2c/c1=N\C1CCOCC1`
6.62 h

====

protocol_text: Cmax in BALB/c mouse at 20 mg/kg, po
Type: ADME, organism-based
Set-up: dose 20 mg/kg, route oral
run_parameters: in vivo
quantity: Cmax (ng/mL)
Give the value in ng/mL but do not write ng/mL after it.

Please review the following examples before continuing.
| molecule | quantity | recorded_value |
| --- | --- | --- |
| COC1CCC(/N=c2\cc3n(-c4ccc(Cl)cc4)c4ccccc4nc-3cc2Nc2ccc(C)nc2)CC1 (centres undefined) | Cmax | 1560 |
| COc1ncccc1Nc1cc2nc3ccccc3n(-c3ccc(OC(F)(F)F)cc3)c-2c/c1=N\C1CCC(OC)CC1 (centres undefined) | Cmax | 1300 |

Value lookup for Cmax; key = CC(C)/N=c1\cc2n(-c3ccc(Cl)cc3)c3ccccc3nc-2cc1Nc1ccc(Cl)cc1 [CLOFAZIMINE]
380

Next molecule: COc1ncccc1Nc1cc2nc3ccccc3n(-c3ccc(F)cc3)c-2c/c1=N\C1CCC(OC)CC1 (centres undefined)
3650

====

Cmax: recorded values
protocol_text: Cmax in BALB/c mouse at 20 mg/kg, po
Format: ADME, organism-based
Parameters: dose 20 mg/kg, route oral
run_parameters: in vivo
Give the value in ng/mL but do not write ng/mL after it.

| molecule | Cmax / ng/mL |
| --- | --- |
| COc1ncccc1Nc1cc2nc3ccccc3n(-c3ccc(Cl)cc3)c-2c/c1=N\C1CCOCC1 | 2010 |

Value lookup for Cmax; key = COc1ncccc1Nc1cc2nc3ccccc3n(-c3ccc(Cl)cc3)c-2c/c1=N\C1CCC(OC)CC1 (stereo not drawn)
3010

Next molecule: `COc1ncccc1Nc1cc2nc3ccccc3n(-c3ccc(F)cc3)c-2c/c1=N\C(C)C`
3020

====

protocol_text: Acute toxicity in mouse
Type: organism-based
run_parameters: in vivo
quantity: LD50 (mg/kg)
Give the value in mg/kg but do not write mg/kg after it.

Value lookup for LD50; key = `CC(C)/N=c1\cc2n(-c3ccc(Cl)cc3)c3ccccc3nc-2cc1Nc1cccnc1`
422

====

Test system: Mus musculus
protocol_text: Acute toxicity in mouse assessed as survival at 500 mg/kg, po measured for 7 days
Type: organism-based
Design: dose 500 mg/kg, route oral
run_parameters: in vivo, 168 h
quantity: Activity

Please review the following examples before continuing.
| molecule | quantity | recorded_value |
| --- | --- | --- |
| COC1CCC(/N=c2\cc3n(-c4ccc(Cl)cc4)c4ccccc4nc-3cc2Nc2cccnc2C)CC1 (stereo unspecified) | Activity | Toxic |
| Cc1ncccc1Nc1cc2nc3ccccc3n(-c3ccc(F)cc3)c-2c/c1=N\C1CCOCC1 | Activity | Toxic |
| COc1ncccc1Nc1cc2nc3ccccc3n(-c3ccc(F)cc3)c-2c/c1=N\C1CCC(OC)CC1 (stereo unspecified) | Activity | Non-toxic |
| COc1ncccc1Nc1cc2nc3ccccc3n(-c3ccc(OC(F)(F)F)cc3)c-2c/c1=N\C1CCC(OC)CC1 (stereo unspecified) | Activity | Non-toxic |
| COC1CCC(/N=c2\cc3n(-c4ccc(Cl)cc4)c4ccccc4nc-3cc2Nc2ccc(C)nc2)CC1 (stereo unspecified) | Activity | Non-toxic |
| COc1ncccc1Nc1cc2nc3ccccc3n(-c3ccc(F)cc3)c-2c/c1=N\C(C)C | Activity | Non-toxic |
| COc1ncccc1Nc1cc2nc3ccccc3n(-c3ccc(C(F)(F)F)cc3)c-2c/c1=N\C(C)C | Activity | Non-toxic |
| COc1ncccc1Nc1cc2nc3ccccc3n(-c3ccc(Cl)cc3)c-2c/c1=N\C1CCC(OC)CC1 (stereo unspecified) | Activity | Non-toxic |

Value lookup for Activity; key = COC1CCC(/N=c2\cc3n(-c4ccc(F)cc4)c4ccccc4nc-3cc2Nc2cccnc2C)CC1 (stereo unspecified)
Toxic

Next molecule: COC1CCC(/N=c2\cc3n(-c4ccc(Br)cc4)c4ccccc4nc-3cc2Nc2cccnc2C)CC1 (stereo unspecified)
Toxic

Next molecule: COc1ncccc1Nc1cc2nc3ccccc3n(-c3ccc(Br)cc3)c-2c/c1=N\C1CCC(OC)CC1 (stereo unspecified)
Non-toxic

Next molecule: COc1ncccc1Nc1cc2nc3ccccc3n(-c3ccc(C(F)(F)F)cc3)c-2c/c1=N\C1CCC(OC)CC1 (stereo unspecified)
Non-toxic

Next molecule: `COc1ncccc1Nc1cc2nc3ccccc3n(-c3ccc(C(F)(F)F)cc3)c-2c/c1=N\C1CCOCC1`
Non-toxic

====

Test system: Mus musculus
protocol_text: Acute toxicity in mouse assessed as survival at 500 mg/kg, po measured for 7 days
Type: organism-based
Parameters: dose 500 mg/kg, route oral
run_parameters: in vivo, 168 h
quantity: Activity

| smiles_entry | recorded_value |
| --- | --- |
| Cc1ncccc1Nc1cc2nc3ccccc3n(-c3ccc(C(F)(F)F)cc3)c-2c/c1=N\C1CCOCC1 | Toxic |
| COc1ncccc1Nc1cc2nc3ccccc3n(-c3ccc(Cl)cc3)c-2c/c1=N\C1CCOCC1 | Non-toxic |
| COc1ncccc1Nc1cc2nc3ccccc3n(-c3ccc(Br)cc3)c-2c/c1=N\C1CCOCC1 | Non-toxic |
